Here, each record is paired with measured IC50 data.
target: Acetylcholinesterase (Electrophorus electricus, UniProt O42275); experiment: Inhibition Assay; settings: pH 8; 25 °C
Sequence (O42275 whole entry): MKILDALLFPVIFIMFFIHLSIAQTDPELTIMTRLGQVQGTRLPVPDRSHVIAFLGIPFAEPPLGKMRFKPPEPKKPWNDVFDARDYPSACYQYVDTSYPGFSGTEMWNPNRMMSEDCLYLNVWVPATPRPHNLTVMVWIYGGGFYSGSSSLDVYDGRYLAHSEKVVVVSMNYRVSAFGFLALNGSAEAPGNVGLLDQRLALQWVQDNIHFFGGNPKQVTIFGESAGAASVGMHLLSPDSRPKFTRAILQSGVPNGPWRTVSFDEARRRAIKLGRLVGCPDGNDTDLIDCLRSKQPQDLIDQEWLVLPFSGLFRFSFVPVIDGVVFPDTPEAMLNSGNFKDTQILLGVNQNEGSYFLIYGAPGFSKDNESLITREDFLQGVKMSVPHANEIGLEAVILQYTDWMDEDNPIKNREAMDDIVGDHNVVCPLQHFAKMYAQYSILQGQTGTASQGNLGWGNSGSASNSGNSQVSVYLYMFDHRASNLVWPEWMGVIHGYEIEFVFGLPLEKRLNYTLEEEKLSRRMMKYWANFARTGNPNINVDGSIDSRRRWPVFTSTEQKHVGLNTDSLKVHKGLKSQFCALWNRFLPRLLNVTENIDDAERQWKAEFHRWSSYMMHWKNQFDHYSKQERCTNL
measured.attribute: IC50 (µM)

>  <compound>
CCOP(=O)(OCC)C(c1ccc(C)cc1)N(Cc1ccccc1)C(=O)Nc1ccccc1 (stereo not drawn) [Alpha-ureidophosphonate, i]

>  <obs.value>
2.23

$$$$
>  <compound>
CCOP(=O)(OCC)C(c1ccc(F)cc1)N(C(=O)Nc1ccccc1)c1ccc(OC)cc1 (stereo not drawn) [Alpha-ureidophosphonate, g]

>  <obs.value>
69.3

$$$$
>  <compound>
CCOP(=O)(OCC)C(c1ccccc1)N(C(=O)Nc1ccccc1)c1ccccc1 (stereo not drawn) [Alpha-ureidophosphonate, a]

>  <obs.value>
172

$$$$
>  <compound>
CCOP(=O)(OCC)C(c1ccc([N+](=O)[O-])cc1)N(C(=O)Nc1ccccc1)c1ccccc1 (stereo not drawn) [Alpha-ureidophosphonate, d]

>  <obs.value>
811

$$$$

----------
molecular target: Acetylcholinesterase (Electrophorus electricus, UniProt O42275)
Here, each record is paired with measured IC50 data.

>  <molecule>
CCOP(=O)(OCC)C(c1ccc(C)cc1)N(C(=O)Nc1ccccc1)C1CCCCC1 (stereo not drawn) [Alpha-ureidophosphonate, k]

>  <study.target>
Acetylcholinesterase (Electrophorus electricus, UniProt O42275)

>  <display.unit>
µM

>  <IC50>
148

$$$$
>  <molecule>
CCOP(=O)(OCC)C(c1ccc(C)cc1)N(C(=O)Nc1ccccc1)c1ccccc1 (stereo not drawn) [Alpha-ureidophosphonate, e]

>  <study.target>
Acetylcholinesterase (Electrophorus electricus, UniProt O42275)

>  <display.unit>
µM

>  <IC50>
441

$$$$
>  <molecule>
CCOP(=O)(OCC)C(c1ccc(C(C)C)cc1)N(C(=O)Nc1ccccc1)c1ccccc1 (stereo not drawn) [Alpha-ureidophosphonate, b]

>  <study.target>
Acetylcholinesterase (Electrophorus electricus, UniProt O42275)

>  <display.unit>
µM

>  <IC50>
230

$$$$

Cited source for all entries: BindingDB's records for doi:10.1016/j.bioorg.2012.01.003
